Entry source: ChEMBL document CHEMBL4387722

biological target: E. coli GroEL/ES (Escherichia coli, UniProt P0A6F5); assay: Inhibition of Escherichia coli GroEL expressed in Escherichia coli DH5alpha/Escherichia coli GroES expressed in Escherichia coli BL21 (DE3) assessed as reduction in GroEL/GroES-mediated denatured rhodanese refolding by measuring rhodanese enzyme activity after 45 mins by Fe(SCN)3 dye based spectrometric analysis
Sequence (P0A6F5 whole entry, looked up): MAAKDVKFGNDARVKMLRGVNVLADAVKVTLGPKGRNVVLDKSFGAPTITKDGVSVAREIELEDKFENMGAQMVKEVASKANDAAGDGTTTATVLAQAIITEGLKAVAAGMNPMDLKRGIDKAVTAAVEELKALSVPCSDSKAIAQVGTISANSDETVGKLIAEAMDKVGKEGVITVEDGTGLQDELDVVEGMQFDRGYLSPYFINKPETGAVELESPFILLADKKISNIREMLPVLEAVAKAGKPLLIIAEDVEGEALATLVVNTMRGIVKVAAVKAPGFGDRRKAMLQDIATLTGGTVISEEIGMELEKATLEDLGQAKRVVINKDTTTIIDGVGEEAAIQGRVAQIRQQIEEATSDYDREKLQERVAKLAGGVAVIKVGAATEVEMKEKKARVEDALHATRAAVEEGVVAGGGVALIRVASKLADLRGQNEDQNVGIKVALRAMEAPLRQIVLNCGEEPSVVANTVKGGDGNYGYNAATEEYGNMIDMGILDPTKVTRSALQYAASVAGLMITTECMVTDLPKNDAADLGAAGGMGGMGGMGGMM
For each of the compounds below, state its IC50.
Reply numerically in µM, unit not repeated.

Exercise: Using known records, supply IC50 for Cc1ccc(S(=O)(=O)Nc2ccc(-c3nc4ccccc4o3)cc2)cc1
Key: 157

Exercise: Using known records, supply IC50 for O=S(=O)(Nc1ccc2oc(-c3ccccc3)nc2c1)c1ccc(F)cc1
Key: 195

Exercise: Using known records, supply IC50 for Cc1ccccc1S(=O)(=O)Nc1ccc(-c2nc3ccccc3o2)cc1
Key: 111

Exercise: Using known records, supply IC50 for Cc1ccc(S(=O)(=O)Nc2ccc3oc(-c4ccccc4)nc3c2)cc1
Key: 157

Exercise: Using known records, supply IC50 for O=S(=O)(Nc1ccc2oc(-c3ccccc3)nc2c1)c1ccccc1C(F)(F)F
Key: 162

Exercise: Using known records, supply IC50 for O=S(=O)(Nc1ccc(-c2nc3ccccc3o2)cc1)c1ccccc1C(F)(F)F
Key: 166

Exercise: Using known records, supply IC50 for O=S(=O)(Nc1ccc(-c2nc3ccccc3o2)cc1)c1cccc(F)c1
Key: 225

Exercise: Using known records, supply IC50 for CCc1ccc(S(=O)(=O)Nc2ccc3oc(-c4ccccc4)nc3c2)cc1
Key: 237

Exercise: Using known records, supply IC50 for COc1ccc(Cl)cc1S(=O)(=O)Nc1ccc(-c2nc3ccccc3o2)cc1
Key: 83

Exercise: Using known records, supply IC50 for O=S(=O)(Nc1ccc(-c2nc3ccccc3o2)cc1)c1cccc(Cl)c1
Key: 168

Exercise: Using known records, supply IC50 for O=S(=O)(Nc1ccc(-c2nc3ccccc3o2)cc1)c1ccccc1Cl
Key: 171

Exercise: Using known records, supply IC50 for C=Cc1ccc(S(=O)(=O)Nc2ccc3oc(-c4ccccc4)nc3c2)cc1
Key: 175

Exercise: Using known records, supply IC50 for O=S(=O)(Nc1ccc(-c2nc3ccccc3o2)cc1)c1ccc(F)cc1
Key: 224

Exercise: Using known records, supply IC50 for O=S(=O)(Nc1ccc2oc(-c3ccccc3)nc2c1)c1ccc(Cl)c(Cl)c1
Key: 152

Exercise: Using known records, supply IC50 for O=S(=O)(Nc1ccc2oc(-c3ccccc3)nc2c1)c1ccc(Cl)cc1
Key: 149

Exercise: Using known records, supply IC50 for O=S(=O)(Nc1ccc(-c2nc3ccccc3o2)cc1)c1ccc(Cl)c(C(F)(F)F)c1
Key: 67

Exercise: Using known records, supply IC50 for O=S(=O)(Nc1ccc(-c2nc3ccccc3o2)cc1)c1cccs1
Key: 239

Exercise: Using known records, supply IC50 for O=S(=O)(Nc1ccc2oc(-c3ccccc3)nc2c1)c1ccccc1F
Key: 171

Exercise: Using known records, supply IC50 for O=[N+]([O-])c1cc(S(=O)(=O)Nc2ccc(-c3nc4ccccc4o3)cc2)ccc1Cl
Key: 44

Exercise: Using known records, supply IC50 for O=S(=O)(Nc1ccc2oc(-c3ccccc3)nc2c1)c1cccs1
Key: 214

Exercise: Using known records, supply IC50 for O=S(=O)(Nc1ccc(-c2nc3ccccc3o2)cc1)c1ccccc1
Key: 217

Exercise: Using known records, supply IC50 for CCc1ccc(S(=O)(=O)Nc2ccc(-c3nc4ccccc4o3)cc2)cc1
Key: 172

Exercise: Using known records, supply IC50 for O=S(=O)(Nc1ccc(-c2nc3ccccc3o2)cc1)c1ccc(Cl)s1
Key: 156

Exercise: Using known records, supply IC50 for O=S(=O)(Nc1ccc2oc(-c3ccccc3)nc2c1)c1ccccc1
Key: 190
